# Target: Cry2 PHR (L348F)-p65AD-NLSx2 fusion construct as released from the TetR (I194T, 1-206)-CIB1 (-NLS)-T2A-Cry2 PHR (L348F)-p65AD-NLSx2 fusion construct
# Sequence (Q96524 other isoform, or with tags, fused parts or gaps L348F I194T L348F L348F I194T L348F): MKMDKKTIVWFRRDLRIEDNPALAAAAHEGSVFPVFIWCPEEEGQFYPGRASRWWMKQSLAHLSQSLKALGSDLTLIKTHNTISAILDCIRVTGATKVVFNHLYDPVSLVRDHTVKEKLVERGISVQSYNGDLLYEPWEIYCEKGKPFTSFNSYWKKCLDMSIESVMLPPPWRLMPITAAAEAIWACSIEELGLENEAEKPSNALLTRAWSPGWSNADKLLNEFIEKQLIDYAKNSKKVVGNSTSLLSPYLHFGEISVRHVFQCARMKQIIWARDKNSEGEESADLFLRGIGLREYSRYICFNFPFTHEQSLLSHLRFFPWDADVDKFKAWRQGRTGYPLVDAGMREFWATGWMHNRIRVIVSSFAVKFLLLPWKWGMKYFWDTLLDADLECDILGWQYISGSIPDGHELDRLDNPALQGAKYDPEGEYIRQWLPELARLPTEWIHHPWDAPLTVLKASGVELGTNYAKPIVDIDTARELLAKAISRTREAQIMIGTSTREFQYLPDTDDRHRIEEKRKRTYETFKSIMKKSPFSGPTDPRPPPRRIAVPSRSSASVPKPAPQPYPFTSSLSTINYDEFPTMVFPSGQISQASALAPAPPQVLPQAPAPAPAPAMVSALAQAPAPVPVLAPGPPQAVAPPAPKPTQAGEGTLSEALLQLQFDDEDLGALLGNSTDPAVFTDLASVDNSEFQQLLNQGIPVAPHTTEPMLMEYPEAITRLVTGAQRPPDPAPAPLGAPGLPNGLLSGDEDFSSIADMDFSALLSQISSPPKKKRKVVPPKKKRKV
# Experimental Protocol: cell-based or functional assay
Measurement Kind: Ub-ELuc luciferase, Dark, Dox 75 ng/mL

Ub-ELuc luciferase, Dark, Dox 75 ng/mL for rTetR (I194T, V16 mutation, 1-206)-CIB1 (-NLS) from the T2A construct (protein, part only; not given: Leftover T2A residues, part only) chain, part: MARLDKSKIINSALELLNGVGIEGLTTRKLAQKLGVEQPTLYWHVKNKRALLDALPIEMLDRHHTHSCPLEGESWQDFLRNNAKSYRCALLSHRDGAKVHLGTRPTEKQYETLENQLAFLCQQGFSLENALYALSAVGHFTLGCVLEEQEHQVAKEERETPTTDSMPPLLKQAIELFDRQGAEPAFLFGLELITCGLEKQLKCESGSPKKKHMEFNGAIGGDLLLNFPDMSVLERQRAHLKYLNPTFDSPLAGFFADSSMITGGEMDSYLSTAGLNLPMMYGETTVEGDSRLSISPETTLGTGNFKAAKFDTETKDCNEAAKKMTMNRDDLVEEGEEEKSKITEQNNGSTKSIKKMKHKAKKEENNFSNDSSKVTKELEKTDYI is 5.9 relative

Values were extracted from patent US20210340548A1.
